Test system: HCT-116 colon
method_summary: NCI-60 one-dose screen, 48 h
experimental_parameters: 10 µM
Procedure: Growth inhibition of the HCT-116 human tumor cell line is measured as a screen for anti-cancer activity. Cells are grown in 96 well plates and exposed to the test compound for 48 hours. Compounds are tested at a single concentration, which is 10^-5 M for most compounds. The reported endpoint is percent growth (GI% or GIPRCNT), where numbers from 0 - 100% represent growth inhibition, and numbers from -100% - 0 represent cell death. For example, a value of 40 represents 60% growth inhibition. […]
This is part of a sample that, as a whole, favours compounds with a hit. Of some 83,000 tested, about 20% had one in any assay. Active and inactive are the calls of the source. The calls were made as follows: active = growth percent below 10; inactive = the rest.
Outcomes: active, inactive

# sample_smiles, assigned_class
rows = [
    ("CC1=C(CCC=NNC(N)=O)C2=C(C)C3(CC3)[C@@](C)(O)C(=O)C2=C1", "active"),
    ("C[C@H]1[C@H](OC(=O)CCC(=O)N(CCCc2cn(-c3ccc([N+](=O)[O-])cc3)nn2)CCNc2ccnc3cc(Cl)ccc23)O[C@@H]2OC3(C)CC[C@H]4[C@H](C)CC[C@@H]1[C@@]24OO3", "inactive"),
    ("CC1=C(CCC=O)C2=C(C)C3(CC3)[C@@](C)(O)C(=O)C2=C1", "active"),
    ("C#CC[Se]C(=O)c1ccc2n[se]nc2c1", "active"),
]

====

Test system: NCI/ADR-RES ovarian
method_summary: NCI-60 one-dose screen, 48 h
experimental_parameters: 10 µM
Experimental: Growth inhibition of the NCI/ADR-RES human […] tumor cell line is measured as a screen for anti-cancer activity. Cells are grown in 96 well plates and exposed to the test compound for 48 hours. Compounds are tested at a single concentration, which is 10^-5 M for most compounds. The reported endpoint is percent growth (GI% or GIPRCNT), where numbers from 0 - 100% represent growth inhibition, and numbers from -100% - 0 represent cell death. For example, a value of 40 represents 60% growth inhibition. […]
This is part of a sample that, as a whole, favours compounds with a hit. Of some 83,000 tested, about 20% had one in any assay. Activity calls are given as the source filed them. Rule for the calls: active = growth percent below 10; inactive = the rest.
Outcomes: TRUE = active, FALSE = inactive

# sample_smiles, assigned_class
data = [
    ("O=C(/C=C/c1ccco1)c1nc2ccccc2n1Cc1ccc(Br)cc1", "FALSE"),
    ("CC1=C(CCC=O)C2=C(C)C3(CC3)[C@@](C)(O)C(=O)C2=C1", "TRUE"),
    ("COC(=O)C[C@](O)(CCC(C)C)C(=O)O[C@H]1C(OC)=C[C@@]23CCCN2CCc2cc4c(cc2[C@@H]13)OCO4", "TRUE"),
    ("O=C(/C=C/c1ccc(Cl)cc1Cl)c1nc2ccccc2n1Cc1ccc(Br)cc1", "FALSE"),
    ("CC(C)N=C([Se])NC(=O)c1cccs1", "TRUE"),
    ("O=C(/C=C/c1cccc(Br)c1)c1nc2ccccc2n1Cc1ccc(Br)cc1", "TRUE"),
    ("C=CCN=C([Se])NC(=O)c1ccc2c(c1)OCO2", "FALSE"),
    ("COC(=O)C[C@](O)(CCCC(C)C)C(=O)O[C@H]1C(OC)=C[C@@]23CCCN2CCc2cc4c(cc2[C@@H]13)OCO4", "FALSE"),
    ("COc1ccc2cc([C@H](C)C(=O)[Se]CCC#N)ccc2c1", "TRUE"),
    ("C=CC[Se]C(=O)c1ccc(C(=O)[Se]CC=C)s1", "TRUE"),
]

====

System: MDA-MB-435 melanoma
method_summary: NCI-60 one-dose screen, 48 h (100 = growth as untreated, 0 = no growth, -100 = all killed)
experimental_parameters: 10 µM
About 83,000 compounds went through this panel and 20% of them were active in at least one assay; those are over-represented in the sample as a whole.

# compound, experimental_target, growth / %
data = [
    ("CC(=C\\C(=O)Oc1ccc2c3c1OC1C(O)CCC4(O)C(C2)N(CC2CCC2)CCC314)/C=C1\\CCCc2ccccc21 (stereo not given)", "MDA-MB-435 melanoma", 61.8),
    ("N#C[Se]CC(=O)Nc1cccc(C(F)(F)F)c1", "MDA-MB-435 melanoma", -18.1),
    ("COc1cc(OC)c(/C=C/C(=O)c2nc3ccccc3n2Cc2ccc(F)cc2)c(OC)c1", "MDA-MB-435 melanoma", 83.5),
    ("C=CCN=C([Se])NC(=O)c1ccc2c(c1)OCO2", "MDA-MB-435 melanoma", 96.6),
    ("CC(=O)Oc1ccccc1C(=O)[Se]C(=NC(C)C)NC(C)C", "MDA-MB-435 melanoma", -94.1),
    ("CC1=C(CCC=NNC(N)=O)C2=C(C)C3(CC3)[C@@](C)(O)C(=O)C2=C1", "MDA-MB-435 melanoma", -96.3),
    ("O=C(/C=C/c1ccco1)c1nc2ccccc2n1Cc1ccc(Br)cc1", "MDA-MB-435 melanoma", 15.2),
    ("C#CCCCN(CCNc1ccnc2cc(Cl)ccc12)C(=O)CCC(=O)O[C@@H]1O[C@@H]2OC3(C)CC[C@H]4[C@H](C)CC[C@@H]([C@H]1C)[C@@]24OO3", "MDA-MB-435 melanoma", 21.2),
    ("O=C([Se]C1C=CCCC1)c1ccc(C(=O)[Se]C2C=CCCC2)s1 (stereo not given)", "MDA-MB-435 melanoma", -61.2),
    ("O=C(/C=C/c1ccc(Cl)cc1Cl)c1nc2ccccc2n1Cc1ccc(Br)cc1", "MDA-MB-435 melanoma", 79.2),
]

====

System: SNB-19 CNS
method_summary: NCI-60 one-dose screen, 48 h (100 = growth as untreated, 0 = no growth, -100 = all killed)
experimental_parameters: 10 µM
About 83,000 compounds went through this panel and 20% of them were active in at least one assay; those are over-represented in the sample as a whole.
Class definitions on growth: group A = under -70%, group B = from -70% up to 50%, group C = 50% and over

# compound, experimental_target, assigned_class
data = [
    ("COCCOCCOCCOc1ccc(-n2cc(-c3ccc(O[C@H]4O[C@@H]5OC6(C)CC[C@H]7[C@H](C)CC[C@@H]([C@H]4C)[C@@]57OO6)cc3)nn2)cc1", "SNB-19 CNS", "group C"),
    ("CC1=C(COCCOC(=O)c2ccc(S(=O)(=O)F)cc2)C2=C(C)C3(CC3)[C@@](C)(O)C(=O)C2=C1", "SNB-19 CNS", "group B"),
    ("O=C(/C=C/c1ccccc1)c1nc2ccccc2n1Cc1ccc(F)cc1", "SNB-19 CNS", "group B"),
    ("O=C([Se]C1C=CCCC1)c1ccc(C(=O)[Se]C2C=CCCC2)s1 (centres undefined)", "SNB-19 CNS", "group A"),
    ("CC1=C(CCC=O)C2=C(C)C3(CC3)[C@@](C)(O)C(=O)C2=C1", "SNB-19 CNS", "group A"),
    ("C[C@H]1[C@H](OC(=O)CCC(=O)Nc2cnccn2)O[C@@H]2OC3(C)CC[C@H]4[C@H](C)CC[C@@H]1[C@@]24OO3", "SNB-19 CNS", "group C"),
    ("O=C(/C=C/c1ccc(Cl)cc1Cl)c1nc2ccccc2n1Cc1ccc(F)cc1", "SNB-19 CNS", "group C"),
    ("C[C@H]1[C@H](OC(=O)CCC(=O)N(CCCc2cn(-c3ccc(C#N)cc3)nn2)CCNc2ccnc3cc(Cl)ccc23)O[C@@H]2OC3(C)CC[C@H]4[C@H](C)CC[C@@H]1[C@@]24OO3", "SNB-19 CNS", "group C"),
    ("COc1ccc(OC)c(/C=C/C(=O)c2nc3ccccc3n2Cc2ccc(F)cc2)c1", "SNB-19 CNS", "group B"),
    ("CC[C@]12C=CCN3CC[C@@]4(c5ccc(OC)cc5N(C)[C@H]4[C@@](O)(C(=O)OC)[C@@H]1OC(=O)CCCC[P+](c1ccc(C)cc1)(c1ccc(C)cc1)c1ccc(C)cc1)[C@@H]32", "SNB-19 CNS", "group A"),
    ("CC(=O)Oc1ccccc1C(=O)NC([Se])=NC1CCCCC1", "SNB-19 CNS", "group B"),
    ("O=C(/C=C/c1cccc(Br)c1)c1nc2ccccc2n1Cc1ccc(Br)cc1", "SNB-19 CNS", "group B"),
]

====

Test system: NCI-H322M lung
method_summary: NCI-60 one-dose screen, 48 h (100 = growth as untreated, 0 = no growth, -100 = all killed)
experimental_parameters: 10 µM
The panel holds about 83,000 compounds, 20% with a hit somewhere; the sample as a whole holds those more often.
Field: label. Allowed values: yes (1) (growth < 70%) or no (0) (growth >= 70%).

# sample_smiles, assigned_class
records = [
    ("C#CC[Se]C(=O)c1ccc(C(=O)[Se]CC#C)s1", "yes (1)"),
    ("N#C[Se]CC(=O)Nc1cccc(C(F)(F)F)c1", "yes (1)"),
    ("COCCOCCOCCOc1ccc(-n2cc(-c3ccc(O[C@H]4O[C@@H]5OC6(C)CC[C@H]7[C@H](C)CC[C@@H]([C@H]4C)[C@@]57OO6)cc3)nn2)cc1", "no (0)"),
    ("CC[C@]12C=CCN3CC[C@@]4(c5ccc(OC)cc5N(C)[C@H]4[C@@](O)(C(=O)OC)[C@@H]1OC(=O)CCC[P+](c1ccc(F)cc1)(c1ccc(F)cc1)c1ccc(F)cc1)[C@@H]32", "yes (1)"),
    ("CC[C@]12C=CCN3CC[C@@]4(c5ccc(OC)cc5N(C)[C@H]4[C@@](O)(C(=O)OC)[C@@H]1OC(=O)CCC[P+](c1ccc(C)cc1)(c1ccc(C)cc1)c1ccc(C)cc1)[C@@H]32", "yes (1)"),
    ("C[C@H]1[C@H](OC(=O)CCC(=O)Nc2cnccn2)O[C@@H]2OC3(C)CC[C@H]4[C@H](C)CC[C@@H]1[C@@]24OO3", "no (0)"),
    ("O=C(/C=C/c1cccc(Br)c1)c1nc2ccccc2n1Cc1ccc(F)cc1", "no (0)"),
    ("CC(C)N=C([Se])NC(=O)c1cccs1", "yes (1)"),
]
